Data provenance: ChEMBL document CHEMBL3885861

Organism: Rattus norvegicus
Experimental details: Open TG-GATES - Regimen: Daily Repeat
Type: toxicity, organism-based, Sprague-Dawley
Set-up: regimen Daily Repeat, gender Male, age 6 weeks
Condition info: in vivo, po, 1000 mg/kg, […], tissue Plasma, route gavage, dose level High, time 14 day
Mark fulfilled for IP under 7 mg/dL, not fulfilled if at or over.

- Compound: "Cc1nnc2n1-c1ccc(Cl)cc1C(c1ccccc1Cl)=NC2"
  Class: "not fulfilled"
- Compound: "O=C(OC[C@H]1O[C@@H](OC(=O)c2cc(O)c(O)c(OC(=O)c3cc(O)c(O)c(O)c3)c2)[C@H](OC(=O)c2cc(O)c(O)c(OC(=O)c3cc(O)c(O)c(O)c3)c2)[C@@H](OC(=O)c2cc(O)c(O)c(OC(=O)c3cc(O)c(O)c(O)c3)c2)[C@@H]1OC(=O)c1cc(O)c(O)c(OC(=O)c2cc(O)c(O)c(O)c2)c1)c1cc(O)c(O)c(OC(=O)c2cc(O)c(O)c(O)c2)c1"
  Class: "not fulfilled"
- Compound: "CNC(=C[N+](=O)[O-])NCCSCc1ccc(CN(C)C)o1"
  Class: "not fulfilled"
- Compound: "CCOc1ccc(NC(C)=O)cc1"
  Class: "fulfilled"
- Compound: "COC(=O)C1=C(C)NC(C)=C(C(=O)OC)C1c1ccccc1[N+](=O)[O-]"
  Class: "not fulfilled"

# next molecule below
Please indicate whether the reported IP of CN/C(=N/CCSCc1nc[nH]c1C)NC#N is strictly below 7 mg/dL. not fulfilled

* * *

Species: Rattus norvegicus
Experimental details: Open TG-GATES - Regimen: Daily Repeat
Assay type: toxicity, organism-based, Sprague-Dawley
Design: regimen Daily Repeat, gender Male, age 6 weeks
Condition info: in vivo, po, 300 mg/kg, […], tissue Blood, route gavage, dose level Middle, time 7 day
Measured Bas accompanies every entry in the list below.
Lab book: enter the figure in %, no units written.

Field: example entries. Status: answers known.
- Molecule: "CNC(=C[N+](=O)[O-])NCCSCc1ccc(CN(C)C)o1 [RANITIDINE]"
  Bas (%): 0
- Molecule: "CN/C(=N/CCSCc1nc[nH]c1C)NC#N [CIMETIDINE]"
  Bas (%): 0
- Molecule: "COC(=O)C1=C(C)NC(C)=C(C(=O)OC)C1c1ccccc1[N+](=O)[O-] [NIFEDIPINE]"
  Bas (%): 0.2
- Molecule: "Cc1nnc2n1-c1ccc(Cl)cc1C(c1ccccc1Cl)=NC2 [TRIAZOLAM]"
  Bas (%): 0
- Molecule: "CCOc1ccc(NC(C)=O)cc1 [PHENACETIN]"
  Bas (%): 0

// below: Bas requested for another molecule
Lab book: Bas of O=C(OC[C@H]1O[C@@H](OC(=O)c2cc(O)c(O)c(OC(=O)c3cc(O)c(O)c(O)c3)c2)[C@H](OC(=O)c2cc(O)c(O)c(OC(=O)c3cc(O)c(O)c(O)c3)c2)[C@@H](OC(=O)c2cc(O)c(O)c(OC(=O)c3cc(O)c(O)c(O)c3)c2)[C@@H]1OC(=O)c1cc(O)c(O)c(OC(=O)c2cc(O)c(O)c(O)c2)c1)c1cc(O)c(O)c(OC(=O)c2cc(O)c(O)c(O)c2)c1 [TANNIC ACID] noted as 0

* * *

Organism: Rattus norvegicus
Experimental details: Open TG-GATES - Regimen: Single
Type: toxicity, organism-based, Sprague-Dawley
Design: regimen Single, gender Male, age 6 weeks
Condition info: in vivo, po, 100 mg/kg, 6 h, tissue Plasma, route gavage, dose level Low
Assay readout: Cl

Lab book: Cl of O=C(OC[C@H]1O[C@@H](OC(=O)c2cc(O)c(O)c(OC(=O)c3cc(O)c(O)c(O)c3)c2)[C@H](OC(=O)c2cc(O)c(O)c(OC(=O)c3cc(O)c(O)c(O)c3)c2)[C@@H](OC(=O)c2cc(O)c(O)c(OC(=O)c3cc(O)c(O)c(O)c3)c2)[C@@H]1OC(=O)c1cc(O)c(O)c(OC(=O)c2cc(O)c(O)c(O)c2)c1)c1cc(O)c(O)c(OC(=O)c2cc(O)c(O)c(O)c2)c1 noted as 105 meq/L

Lab book: Cl of COC(=O)C1=C(C)NC(C)=C(C(=O)OC)C1c1ccccc1[N+](=O)[O-] noted as 98.6 meq/L

* * *

Species: Rattus norvegicus
Experimental details: Open TG-GATES - Regimen: Daily Repeat
Format: toxicity, organism-based, Sprague-Dawley
Parameters: regimen Daily Repeat, gender Male, age 6 weeks
Condition info: in vivo, po, 100 mg/kg, […], tissue Kidney, route gavage, dose level Low, time 14 day
Assay readout: KIDNEY_L (g)
Lab book: enter the figure in g, no units written.

- Molecule: "Cc1nnc2n1-c1ccc(Cl)cc1C(c1ccccc1Cl)=NC2 [TRIAZOLAM]"
  Unit of measure: "g"
  KIDNEY_L: 1.2
- Molecule: "CCOc1ccc(NC(C)=O)cc1 [PHENACETIN]"
  Unit of measure: "g"
  KIDNEY_L: 1.2
- Molecule: "CN/C(=N/CCSCc1nc[nH]c1C)NC#N [CIMETIDINE]"
  Unit of measure: "g"
  KIDNEY_L: 1.2
- Molecule: "O=C(OC[C@H]1O[C@@H](OC(=O)c2cc(O)c(O)c(OC(=O)c3cc(O)c(O)c(O)c3)c2)[C@H](OC(=O)c2cc(O)c(O)c(OC(=O)c3cc(O)c(O)c(O)c3)c2)[C@@H](OC(=O)c2cc(O)c(O)c(OC(=O)c3cc(O)c(O)c(O)c3)c2)[C@@H]1OC(=O)c1cc(O)c(O)c(OC(=O)c2cc(O)c(O)c(O)c2)c1)c1cc(O)c(O)c(OC(=O)c2cc(O)c(O)c(O)c2)c1 [TANNIC ACID]"
  Unit of measure: "g"
  KIDNEY_L: 1.1
- Molecule: "CNC(=C[N+](=O)[O-])NCCSCc1ccc(CN(C)C)o1 [RANITIDINE]"
  Unit of measure: "g"
  KIDNEY_L: 1.2

// below: KIDNEY_L requested for another molecule
Lab book: KIDNEY_L of COC(=O)C1=C(C)NC(C)=C(C(=O)OC)C1c1ccccc1[N+](=O)[O-] [NIFEDIPINE] noted as 1.2

* * *

Measured MCV accompanies every entry in the list below.
Species on record: Rattus norvegicus
Experimental details: Open TG-GATES - Regimen: Daily Repeat
Format: toxicity, organism-based, Sprague-Dawley
Design: regimen Daily Repeat, gender Male, age 6 weeks
Condition info: in vivo, po, 100 mg/kg, 72 h, tissue Blood, route gavage, dose level Low, time 3 day
Lab book: enter the figure in fL, no units written.

Field: example entries. Status: answers known.
- Compound: "CCOc1ccc(NC(C)=O)cc1"
  Unit of measure: "fL"
  MCV: 61.8
- Compound: "Cc1nnc2n1-c1ccc(Cl)cc1C(c1ccccc1Cl)=NC2"
  Unit of measure: "fL"
  MCV: 63.9
- Compound: "CNC(=C[N+](=O)[O-])NCCSCc1ccc(CN(C)C)o1"
  Unit of measure: "fL"
  MCV: 63.3
- Compound: "COC(=O)C1=C(C)NC(C)=C(C(=O)OC)C1c1ccccc1[N+](=O)[O-]"
  Unit of measure: "fL"
  MCV: 64

Lab book: MCV of CN/C(=N/CCSCc1nc[nH]c1C)NC#N noted as 63.6

Lab book: MCV of O=C(OC[C@H]1O[C@@H](OC(=O)c2cc(O)c(O)c(OC(=O)c3cc(O)c(O)c(O)c3)c2)[C@H](OC(=O)c2cc(O)c(O)c(OC(=O)c3cc(O)c(O)c(O)c3)c2)[C@@H](OC(=O)c2cc(O)c(O)c(OC(=O)c3cc(O)c(O)c(O)c3)c2)[C@@H]1OC(=O)c1cc(O)c(O)c(OC(=O)c2cc(O)c(O)c(O)c2)c1)c1cc(O)c(O)c(OC(=O)c2cc(O)c(O)c(O)c2)c1 noted as 66.4

* * *

Species on record: Rattus norvegicus
Experimental details: Open TG-GATES - Regimen: Single
Format: toxicity, organism-based, Sprague-Dawley
Set-up: regimen Single, gender Male, age 6 weeks
Condition info: in vivo, po, 0 mg/kg, 9 h, tissue Plasma, route gavage, dose level Control
Assay readout: TP (g/dL)
Lab book: enter the figure in g/dL, no units written.

- Compound: "COC(=O)C1=C(C)NC(C)=C(C(=O)OC)C1c1ccccc1[N+](=O)[O-]"
  Unit of measure: "g/dL"
  TP: 5.3
- Compound: "NC1=NC(=O)C(c2ccccc2)O1 (stereo not drawn)"
  Unit of measure: "g/dL"
  TP: 5.3
- Compound: "O=C(OC[C@H]1O[C@@H](OC(=O)c2cc(O)c(O)c(OC(=O)c3cc(O)c(O)c(O)c3)c2)[C@H](OC(=O)c2cc(O)c(O)c(OC(=O)c3cc(O)c(O)c(O)c3)c2)[C@@H](OC(=O)c2cc(O)c(O)c(OC(=O)c3cc(O)c(O)c(O)c3)c2)[C@@H]1OC(=O)c1cc(O)c(O)c(OC(=O)c2cc(O)c(O)c(O)c2)c1)c1cc(O)c(O)c(OC(=O)c2cc(O)c(O)c(O)c2)c1"
  Unit of measure: "g/dL"
  TP: 5.5
- Compound: "CCCc1cc(=O)[nH]c(=S)[nH]1"
  Unit of measure: "g/dL"
  TP: 5.5

Lab book: TP of Brc1ccccc1 noted as 5.6

Lab book: TP of CN(C)CCC(c1ccc(Cl)cc1)c1ccccn1 (stereo not drawn) noted as 5.4

Lab book: TP of CN1C(=O)CCS(=O)(=O)C1c1ccc(Cl)cc1 (stereo not drawn) noted as 5.5

Lab book: TP of CS(=O)(=O)O.Cc1ccc(NC(=O)c2ccc(CN3CCN(C)CC3)cc2)cc1Nc1nccc(-c2cccnc2)n1 [IMATINIB MESYLATE] noted as 5.5
